The values you see were collected from patent US7635696B2.

I'd be grateful if you could share measured pIC50 D3 for these entries.
Assay system: Human Dopamine D3 receptor (Homo sapiens)
Construct: expressed in transfected cells; host or cells: CHO cells
Sequence (P35462 whole entry): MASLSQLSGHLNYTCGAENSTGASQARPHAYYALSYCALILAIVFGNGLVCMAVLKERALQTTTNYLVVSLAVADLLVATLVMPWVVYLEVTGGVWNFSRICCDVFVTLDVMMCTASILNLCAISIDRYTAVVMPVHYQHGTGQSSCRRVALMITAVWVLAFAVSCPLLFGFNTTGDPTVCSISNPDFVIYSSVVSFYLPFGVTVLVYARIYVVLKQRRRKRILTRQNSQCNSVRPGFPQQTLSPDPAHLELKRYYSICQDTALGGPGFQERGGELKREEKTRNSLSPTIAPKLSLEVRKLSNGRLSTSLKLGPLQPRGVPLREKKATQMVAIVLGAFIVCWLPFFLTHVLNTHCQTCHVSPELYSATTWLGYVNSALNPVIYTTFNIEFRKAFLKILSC
Assay comment: Binding experiment for dopamine D3 receptor ([125I]Iodosulpride)
Cond: transfected CHO cell membranes
Reply briefly: the number, and no unit.

Known value: Human Dopamine D3 receptor (Homo sapiens) pIC50 D3 of the molecule COc1cc2c(cc1OC)C1=NOC(CNCCCc3c[nH]c4ccc(F)cc34)C1CO2 (single isomer, unassigned) [Compound 5] equals 7.0

Entry COc1cc2c(cc1OC)C1=NOC(CNCCCc3c[nH]c4ccc(F)cc34)C1CO2 (single isomer, unassigned) [Compound 4] under Human Dopamine D3 receptor (Homo sapiens) had pIC50 D3 of 6.7

Bench note, Human Dopamine D3 receptor (Homo sapiens): entry COc1cc2c(cc1OC)C1=NOC(CN3CCC(c4c[nH]c5cccc(F)c45)CC3)C1CO2 (racemic) [Compound 17] , its pIC50 D3 = 6.3

Summary: COc1cc2c(cc1OC)C1=NOC(CN3CC=C(c4c[nH]c5cccc(F)c45)CC3)C1CO2 (single isomer, unassigned) [Compound 16] , Human Dopamine D3 receptor (Homo sapiens), pIC50 D3 = 6.5
